Sourced from the supplement of paper PMC10065799

target: MERTK (UniProt Q12866); experiment: phosphorylation enrichment, bacterial display (enrichment ratio); higher = better substrate or ligand; peptides without Tyr show the background
Sequence (Q12866 whole entry, looked up): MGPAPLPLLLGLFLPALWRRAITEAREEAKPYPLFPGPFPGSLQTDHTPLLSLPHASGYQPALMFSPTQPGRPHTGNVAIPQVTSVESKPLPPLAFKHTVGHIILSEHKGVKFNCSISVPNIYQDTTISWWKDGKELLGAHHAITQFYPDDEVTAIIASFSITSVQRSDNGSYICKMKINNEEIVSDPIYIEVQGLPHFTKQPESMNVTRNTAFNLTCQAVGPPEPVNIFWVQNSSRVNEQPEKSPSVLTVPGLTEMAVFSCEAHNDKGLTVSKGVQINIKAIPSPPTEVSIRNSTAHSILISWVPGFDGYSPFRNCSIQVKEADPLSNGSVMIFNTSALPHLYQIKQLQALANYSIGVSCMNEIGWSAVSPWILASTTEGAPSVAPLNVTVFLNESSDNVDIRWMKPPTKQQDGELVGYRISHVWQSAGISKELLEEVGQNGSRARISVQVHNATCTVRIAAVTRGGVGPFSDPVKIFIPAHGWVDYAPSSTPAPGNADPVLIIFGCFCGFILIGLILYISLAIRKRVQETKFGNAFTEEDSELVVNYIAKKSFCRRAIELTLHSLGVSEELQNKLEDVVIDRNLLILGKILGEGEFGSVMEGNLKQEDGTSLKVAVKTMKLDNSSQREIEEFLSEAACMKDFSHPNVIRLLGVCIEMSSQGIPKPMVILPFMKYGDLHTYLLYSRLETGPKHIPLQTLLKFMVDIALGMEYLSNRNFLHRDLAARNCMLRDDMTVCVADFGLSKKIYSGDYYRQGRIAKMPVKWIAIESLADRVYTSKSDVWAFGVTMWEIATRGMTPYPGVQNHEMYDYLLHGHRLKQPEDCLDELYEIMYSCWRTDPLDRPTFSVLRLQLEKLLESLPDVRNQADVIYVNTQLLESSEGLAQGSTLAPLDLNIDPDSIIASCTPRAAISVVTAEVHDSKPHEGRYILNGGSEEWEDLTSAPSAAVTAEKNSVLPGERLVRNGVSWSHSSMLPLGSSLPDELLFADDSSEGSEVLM
# phosphorylation enrichment per record follows
Give only the figure.

Worked cases, answers included:
• LDLSYYHTSSS [EMD_Y182_P183H] = 0.634
• FSEVRYMKEPY [HIPK4_Y170_V171M] = 0.463
• KFDLMYAKLAF [TUBA1A_Y399_R402L] = 3.23
• RDMNACIRPSP [MMAA_Y207_Y207C] = 0.62
• KAALSYVSEIG [BPIFB2_Y36] = 0.326
• EYGRRYGFSCQ [CCDC93_Y209_R213C] = 0.476

We now examine a further sequence.
Quick check: phosphorylation enrichment of ARIVDYNIIGW [MYH7_Y588_G584R] ? 0.454

* * *

target: FGFR1 (UniProt P11362); experiment: phosphorylation enrichment, bacterial display (enrichment ratio); higher = better substrate or ligand; peptides without Tyr show the background
Sequence (P11362 whole entry, looked up): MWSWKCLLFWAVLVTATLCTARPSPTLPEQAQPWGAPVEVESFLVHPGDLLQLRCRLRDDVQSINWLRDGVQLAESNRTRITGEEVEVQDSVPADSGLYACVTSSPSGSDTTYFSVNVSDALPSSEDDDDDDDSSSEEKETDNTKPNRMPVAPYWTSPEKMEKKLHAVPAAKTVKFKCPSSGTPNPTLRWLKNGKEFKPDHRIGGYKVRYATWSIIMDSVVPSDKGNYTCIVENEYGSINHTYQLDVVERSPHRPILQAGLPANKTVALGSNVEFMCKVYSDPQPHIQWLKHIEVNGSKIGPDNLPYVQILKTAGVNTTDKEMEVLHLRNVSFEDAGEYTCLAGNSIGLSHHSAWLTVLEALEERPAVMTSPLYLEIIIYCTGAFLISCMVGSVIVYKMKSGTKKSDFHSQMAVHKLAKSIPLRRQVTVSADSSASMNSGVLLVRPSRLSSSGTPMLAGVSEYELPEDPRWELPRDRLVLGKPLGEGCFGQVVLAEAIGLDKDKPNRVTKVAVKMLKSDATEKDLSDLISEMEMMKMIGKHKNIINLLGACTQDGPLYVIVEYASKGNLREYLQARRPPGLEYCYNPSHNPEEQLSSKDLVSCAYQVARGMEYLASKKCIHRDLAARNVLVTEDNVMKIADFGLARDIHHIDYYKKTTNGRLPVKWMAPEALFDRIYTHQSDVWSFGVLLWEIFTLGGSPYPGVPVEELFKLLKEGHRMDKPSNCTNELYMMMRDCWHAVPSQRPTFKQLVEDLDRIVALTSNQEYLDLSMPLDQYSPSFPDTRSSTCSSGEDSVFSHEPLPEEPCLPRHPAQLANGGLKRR
metric: phosphorylation enrichment
Give a plain numeric answer without units written out.

Return phosphorylation enrichment measured with FGFR1 (UniProt P11362) given this sequence: FRQNGYIPGSN [PCDHGA1_Y895_V894G_YF] 0.416

And KVNKIYHPDFI [LIG3_Y767_Y768H] ? 0.398

Entry to check: EFKDAYTFAAD [BRDT_Y335_K336T_YF] 0.508

Would you mind doing SSFSRYIMMPN [LEF1_Y114_G113R_YF] as well? 0.599

Similarly, MILSAYALGGL [CPS1_Y590_R587L] ? 0.431

For GHNDVYISKHV [GRIN2A_Y1423_E1426K] then? 0.323

Thanks! And LKEIHYPPFTD [ALDH3B2_Y362_YF] ? 0.474

* * *

biological target: Fes (UniProt P07332); experiment: phosphorylation enrichment, bacterial display (enrichment ratio); higher = better substrate or ligand; peptides without Tyr show the background
Sequence (P07332 whole entry, looked up): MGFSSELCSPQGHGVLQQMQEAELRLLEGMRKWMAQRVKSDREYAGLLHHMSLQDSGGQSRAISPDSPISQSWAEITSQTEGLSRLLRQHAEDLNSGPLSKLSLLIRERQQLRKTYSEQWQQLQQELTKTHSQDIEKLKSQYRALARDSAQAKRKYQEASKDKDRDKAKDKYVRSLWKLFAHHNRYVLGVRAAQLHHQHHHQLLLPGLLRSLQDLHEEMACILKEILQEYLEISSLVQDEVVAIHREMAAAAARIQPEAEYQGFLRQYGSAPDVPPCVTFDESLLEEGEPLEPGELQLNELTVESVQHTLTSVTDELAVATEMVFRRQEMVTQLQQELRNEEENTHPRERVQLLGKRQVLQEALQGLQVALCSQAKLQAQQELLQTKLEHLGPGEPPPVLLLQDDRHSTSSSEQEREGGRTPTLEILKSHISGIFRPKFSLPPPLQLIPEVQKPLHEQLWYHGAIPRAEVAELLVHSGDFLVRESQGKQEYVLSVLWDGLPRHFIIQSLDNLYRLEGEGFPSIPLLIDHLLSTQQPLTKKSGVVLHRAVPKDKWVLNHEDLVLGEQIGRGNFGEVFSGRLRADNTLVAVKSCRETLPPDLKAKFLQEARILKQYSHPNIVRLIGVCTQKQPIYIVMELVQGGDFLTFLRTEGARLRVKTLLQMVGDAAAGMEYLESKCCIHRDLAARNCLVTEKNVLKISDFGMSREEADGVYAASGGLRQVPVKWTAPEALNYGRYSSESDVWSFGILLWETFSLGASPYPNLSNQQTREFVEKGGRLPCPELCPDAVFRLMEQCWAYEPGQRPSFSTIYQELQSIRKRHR
metric: phosphorylation enrichment

- HAVFVYDICHV [TWNK_Y508_YF]: 2.02
- SLTGAYASGIP [POM121C_Y378_T379A]: 0.906
- TYGVLYKARNK [CDK2_Y19_V18L]: 0.691

Could you share which phosphorylation enrichment value was measured for PIPAAYNKYDQ [CDC73_Y290_R292K] ? 0.904

Lookup DKNSSYFADWF [TUBB8_Y340_L345F] 1.01

* * *

test system: Fer (mouse); assay: phosphorylation enrichment, bacterial display (enrichment ratio); higher = better substrate or ligand; peptides without Tyr show the background
# cutoff 0.5 applies to phosphorylation enrichment; >= gives 1, < gives 0

Use the examples below as a reference point.
- KPGVNYYFQVS: 1
- KPRKPYTIKKP [BRD2_Y715]: 1

phosphorylation enrichment >= 0.5 for KQNSLYSFSDH [CCDC82_Y331] ? 1

How about SVVVPNEPPEV [TP53_Y220_Y220N] ? 1

Subsequent entry: DRLPSYLDKVR [KRT12_Y139_A137P] 0

* * *

target: Hck (UniProt P08631); assay: phosphorylation enrichment, bacterial display (enrichment ratio); higher = better substrate or ligand; peptides without Tyr show the background
Sequence (P08631 whole entry, looked up): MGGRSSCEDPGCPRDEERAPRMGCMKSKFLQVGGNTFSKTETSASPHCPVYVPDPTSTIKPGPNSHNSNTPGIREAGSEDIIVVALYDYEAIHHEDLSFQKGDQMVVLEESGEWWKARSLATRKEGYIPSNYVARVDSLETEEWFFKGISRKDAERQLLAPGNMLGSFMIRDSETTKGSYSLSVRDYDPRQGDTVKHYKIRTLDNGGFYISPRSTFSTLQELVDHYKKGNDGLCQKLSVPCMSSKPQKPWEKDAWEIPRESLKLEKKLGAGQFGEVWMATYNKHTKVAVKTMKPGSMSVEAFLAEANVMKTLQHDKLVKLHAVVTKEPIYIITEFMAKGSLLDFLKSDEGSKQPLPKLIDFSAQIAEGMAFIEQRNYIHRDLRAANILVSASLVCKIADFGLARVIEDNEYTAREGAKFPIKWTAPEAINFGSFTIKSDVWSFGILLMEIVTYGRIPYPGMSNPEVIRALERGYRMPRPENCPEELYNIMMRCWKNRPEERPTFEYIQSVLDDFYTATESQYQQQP
metric: phosphorylation enrichment
Lab note: write the figure by itself, no unit.

For orientation, consider the following solved cases.
* FFRCHYPLTTL [TNS4_Y644_R642C] | 0.48
* EAVSIYQFFGQ [CBLC_Y402_H405Y_YF] | 7.12
* RNVFFYSFLLK [PTEN_Y178_Y174N_YF] | 0.565
* RFLRGYHQDAY [HLA-A_Y137_R138H] | 0.538

Return reported phosphorylation enrichment; argument: HICTAYKLVLA [DHCR24_Y190_E191K] 1.47

And the next one, LSGVIYVILRK [PMP22_Y153] ? 0.513

Also FFCKFYNKSED [RYR1_Y4864_R4861C] , if possible. 0.552

Let us now turn to EGNEQYEGYCV [GRIA3_Y451_R450Q] 0.604

* * *

biological target: Grb2 SH2 (UniProt P62993); assay: SH2 binding enrichment of the phosphorylated peptide, bacterial display (enrichment ratio); higher = better substrate or ligand; peptides without Tyr show the background
Sequence (P62993 whole entry, looked up): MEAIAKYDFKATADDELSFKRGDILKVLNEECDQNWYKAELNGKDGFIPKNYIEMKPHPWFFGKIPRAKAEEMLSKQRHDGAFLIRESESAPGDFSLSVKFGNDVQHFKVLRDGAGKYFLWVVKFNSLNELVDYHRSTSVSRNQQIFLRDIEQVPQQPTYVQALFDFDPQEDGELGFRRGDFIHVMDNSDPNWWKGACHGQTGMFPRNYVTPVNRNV
Documented SH2 binding enrichment across a set of sequences
Reply with just the number.

Before answering, review these 6 worked examples.
- QLQTNYPSSDN [MAX_Y115]: 0.752
- ECKLLYSRKEG [PTPN11_Y263]: 1.02
- GKPENYRRLDI [VHL_Y175_V170G]: 0.755
- AKAFIYASHIV [ZNF573_Y229_G224A]: 0.82
- NGLVACKDGKL [PMM2_Y76_Y76C]: 0.969
- FKEQGYHRLPS [RIN1_Y681_P686S_YF]: 1.01

We now examine a further sequence.
Request the reported SH2 binding enrichment associated with KFSNQYKATIG [RAB7A_Y37] 0.948

* * *

test system: AncSZ; experiment: phosphorylation enrichment, bacterial display (enrichment ratio); higher = better substrate or ligand; peptides without Tyr show the background
# cutoff 0.8 applies to phosphorylation enrichment; >= gives y, < gives n

Answered cases to consult:
- EYGRRYGFSCQ [CCDC93_Y209_R213C]: y
- TYGVLYKARNK [CDK2_Y19_V18L]: n
- LLKAGYHGVLR [TTPA_Y100]: y
- LNARHYGGLTG [PGAM2_Y92_E89A]: n
- ECKLLYSRKEG [PTPN11_Y263]: y
- QLCVNYPGGYT [PROS1_Y259]: y

Form field: phosphorylation enrichment at least 0.8? Entry: VDLIVYLWTNP [TK2_Y181_R183W] y

And for HISGVYKLPPD [ANGPTL7_Y145_R140H] ? y

* * *

target: EPHB2 (UniProt P29323); experiment: phosphorylation enrichment, bacterial display (enrichment ratio); higher = better substrate or ligand; peptides without Tyr show the background
Sequence (P29323 whole entry, looked up): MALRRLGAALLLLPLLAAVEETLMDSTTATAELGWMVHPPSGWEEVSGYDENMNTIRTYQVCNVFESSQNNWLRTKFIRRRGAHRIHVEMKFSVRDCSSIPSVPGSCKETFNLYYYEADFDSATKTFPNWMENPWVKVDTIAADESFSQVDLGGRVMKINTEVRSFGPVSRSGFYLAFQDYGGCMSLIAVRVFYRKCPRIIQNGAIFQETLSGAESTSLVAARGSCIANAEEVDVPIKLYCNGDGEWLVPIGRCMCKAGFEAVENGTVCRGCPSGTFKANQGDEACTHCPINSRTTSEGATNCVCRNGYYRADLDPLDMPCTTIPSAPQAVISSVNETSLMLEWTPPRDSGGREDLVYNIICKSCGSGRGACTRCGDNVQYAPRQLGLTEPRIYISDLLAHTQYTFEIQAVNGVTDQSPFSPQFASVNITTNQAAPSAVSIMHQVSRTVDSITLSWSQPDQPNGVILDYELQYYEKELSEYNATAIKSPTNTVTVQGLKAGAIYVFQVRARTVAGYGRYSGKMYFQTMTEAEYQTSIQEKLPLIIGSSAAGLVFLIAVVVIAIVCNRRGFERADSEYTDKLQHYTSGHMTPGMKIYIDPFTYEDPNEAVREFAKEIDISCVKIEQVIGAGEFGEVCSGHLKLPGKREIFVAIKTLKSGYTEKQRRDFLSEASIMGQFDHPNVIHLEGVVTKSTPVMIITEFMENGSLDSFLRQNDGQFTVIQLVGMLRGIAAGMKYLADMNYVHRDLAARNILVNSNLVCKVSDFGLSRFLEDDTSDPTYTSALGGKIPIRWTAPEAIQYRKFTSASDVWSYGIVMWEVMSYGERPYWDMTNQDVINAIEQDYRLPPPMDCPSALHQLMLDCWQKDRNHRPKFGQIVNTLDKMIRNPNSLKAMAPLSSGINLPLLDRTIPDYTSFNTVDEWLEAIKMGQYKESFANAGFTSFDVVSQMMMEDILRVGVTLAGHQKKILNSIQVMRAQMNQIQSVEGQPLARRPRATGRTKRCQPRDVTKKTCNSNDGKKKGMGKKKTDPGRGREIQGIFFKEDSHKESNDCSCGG
Assign class by phosphorylation enrichment: not lower than 0.4 means T; lower than 0.4 means F.

Consider the following illustrative entries.
- LTTEVYFPSIK [C5orf64_Y60_A57T]: T
- SFMVRYNQPRV [GRIN2D_Y736_YF]: T
- NTVLGYFIGRI [GARS1_Y408]: T
- CTLLPYYSARV [DGKE_Y269]: T
- TVVVPYEPPEV [TP53_Y220_S215T]: T
- KLMTEYKKRKQ [ARFGEF3_Y2029]: F

Answer whether phosphorylation enrichment of NNKKDYFDMFE [SLC26A3_Y526_K521N_YF] is greater than or equal to 0.4. T

// next record DRLPSYLDKVR [KRT12_Y139_A137P] F

# repeat for IGEGTYRTVFK [CDK5_Y15_G16R] T

KASGKYFAMKI [AKT3_Y173_YF] ? F

Record: DPAFGYEDFTR [SESN2_Y323_T320A] T

How about this sequence: EVEFEYPFRLH [SYP_Y73] T

One more sequence: EAVKNYTEKRG [PBRM1_Y672_D674E] F

Next entry: DTLLEYLENPK [CYCS_Y68_M66L] T

* * *

# reported phosphorylation enrichment; entries follow
system: AncSZ; test: phosphorylation enrichment, bacterial display (enrichment ratio); higher = better substrate or ligand; peptides without Tyr show the background
// return just the number, without any unit appended

# annotated cases, reported phosphorylation enrichment shown
* EFKKHYGYSLY [ANXA3_Y295] | 0.531
* QLFGPYLRIHA [BSCL2_Y213_A212P_YF] | 1.25
* QTEAPYRFIFM [PTPN11_Y511_Q510P_YF] | 1.34
* FLTQHYDAEPQ [ANG_Y38_K41E] | 0.853
* LQKPMYEVQWK [KIT_Y553] | 1.29

Moving on to another sequence below.
Query (sequence): ISTAGYSIPEL [EDAR_Y406] ; field requested: phosphorylation enrichment 0.807

* * *

system: Fer (mouse); assay: phosphorylation enrichment, bacterial display (enrichment ratio); higher = better substrate or ligand; peptides without Tyr show the background
# phosphorylation enrichment per entry
Lab note: jot the number down without any unit.

See these solved cases before continuing.
* QRHFVYFFSFL [PTEN_Y176_R173H_YF] | 1.11
* QSPQLYKQMCI [DARS1_Y253] | 0.673
* LGPSDYFGEIA [PRKAR1A_Y323] | 0.579
* KNEKVYTRHGV [FLOT1_Y56_S52N] | 0.316
* NKFVAYIESQG [KDM4B_Y34_YF] | 0.481
* SFPSYYTSHVQ [NEFL_Y443] | 0.759

Field request: phosphorylation enrichment | item: GVTLLYFGRDN [ADGRD1_Y85_Y89D_YF] 0.481

Next up: GGFTRYCDGKK [PROS1_Y266_C265R_YF] 0.436

Now this one: KFANSYRMEPL [TCTE3_Y87] 0.465

Thanks! And DQIDTYELSGG [DNM1_Y354] ? 0.479

Follow-up item: GLQDEYDFKCK [STAT1_Y170_D165G] 0.467

Record: PGIRMYRVQYN [LRFN1_Y454_Q455R] 0.989

Request: FTNRNYDLDYD [MYC_Y12] 0.58

Note, next up: PATINYPFEKG [NDUFS8_Y84] 0.595

Okay, and CPPELYALMSD [ZAP70_Y569] ? 1.19

Now consider EAVKNYTEKRG [PBRM1_Y672_D674E] . 0.564
